Can you tell me PBM binding z-score for the items I'm about to list?
- System: VDR:RXRa (NR concentration 270 nM, RXRa partner concentration 90 nM)
- PROTOCOL DETAILS: PBM binding z-score (relative to random genomic background probes); higher = stronger binding; sequences stand for … in GC…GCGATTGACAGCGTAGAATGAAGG
API doc: respond with a numeric literal and nothing else, no unit.

Would you kindly share the measured PBM binding z-score for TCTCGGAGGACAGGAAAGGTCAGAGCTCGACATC ?
2.7

Would you kindly share the measured PBM binding z-score for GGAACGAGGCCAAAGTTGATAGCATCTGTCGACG ?
-0.112

Would you kindly share the measured PBM binding z-score for TCTTGTAGACCAATAGAGGTTAAGAAAGTGCGCT ?
1.82

Would you kindly share the measured PBM binding z-score for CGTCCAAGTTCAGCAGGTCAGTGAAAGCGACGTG ?
2.86

Would you kindly share the measured PBM binding z-score for AGAATGAGGTTACAAAAGATCAGGGAAACGCTTG ?
1.24

Reference source for all entries: the supplement of paper PMC6555819
